FYI, the data here is from patent US20260250250A1.

Each record here notes measured IC50.
Molecular target: human E3 ubiquitin-protein ligase RNF31 (HOIP) (Homo sapiens)
Sequence (Q96EP0 695-1072 limits assumed): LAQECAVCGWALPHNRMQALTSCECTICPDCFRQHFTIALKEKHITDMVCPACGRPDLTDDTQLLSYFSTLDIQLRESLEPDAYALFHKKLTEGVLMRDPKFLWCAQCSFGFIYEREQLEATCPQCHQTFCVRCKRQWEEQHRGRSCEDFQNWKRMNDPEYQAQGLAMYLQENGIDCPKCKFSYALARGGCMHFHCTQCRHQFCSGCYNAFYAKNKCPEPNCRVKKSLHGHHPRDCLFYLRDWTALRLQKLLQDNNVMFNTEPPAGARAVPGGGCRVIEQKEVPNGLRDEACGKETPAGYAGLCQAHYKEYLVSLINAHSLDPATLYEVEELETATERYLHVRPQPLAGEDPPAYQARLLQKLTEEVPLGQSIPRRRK
Experiment: Cell-free HTRF-based HOIP inhibition assay
Format: biochemical

**Query** Quick check: IC50 of COc1ccc(S(=N)(=O)/C=C/CNC(=O)c2cc3cccnc3[nH]c2=O)cc1F (stereo not shown) ?
**Result** ≤ 1000 nM

---

Molecular target: human E3 ubiquitin-protein ligase RNF31 (HOIP) (Homo sapiens)
Assay: Cell-free HTRF-based HOIP inhibition assay
Type: biochemical
Experimental: This assay was performed in the following steps: • a) synthesis of recombinant fragment of human E3 ubiquitin-protein ligase RNF31 (HOIP), expressed with purity >90% in E. coli system (the protein was prepared as 1 mg/mL stock in a standard formulation); • b) incubation of the compounds in a typical concentration range: 100-0.005 μM, at a final DMSO conc. […]
metric: IC50

Some compounds with known IC50 results, for comparison:
>  <compound>
CC(=O)N1CCC(OC(=O)N2CCc3[nH]c(=O)c(C(=O)NC/C=C/S(=O)(=O)c4ccc(Cl)cc4)cc3C2)CC1

>  <result>
≤ 100 nM

$$$$
>  <compound>
O=C(NC/C=C/S(=O)(=O)c1ccccc1)c1cc2c([nH]c1=O)CCN(C(=O)OCCc1ccco1)C2

>  <result>
≤ 1000 nM

$$$$
>  <compound>
CC(C)(C)OC(=O)N1CCc2[nH]c(=O)c(C(=O)NC/C=C/S(=O)(=O)c3ccc(Cl)cc3)cc2C1

>  <result>
≤ 100 nM

$$$$
>  <compound>
N=S(=O)(/C=C/CNC(=O)c1cc2c([nH]c1=O)CCCC2)c1ccc(N2CCCC2)cc1 (stereo not drawn)

>  <result>
≤ 100 nM

$$$$
>  <compound>
O=C(NC/C=C/S(=O)(=O)c1ccc(Cl)cc1)c1cc2c([nH]c1=O)CCN(C(=O)NC1CC1)C2

>  <result>
≤ 1000 nM

$$$$
>  <compound>
COCCOC(=O)N1CCc2[nH]c(=O)c(C(=O)NC/C=C/S(=O)(=O)c3ccccc3)cc2C1

>  <result>
≤ 1000 nM

$$$$

Please look at the following compound next.
**Query** Quick check: IC50 of Cc1ccc(S(=N)(=O)/C=C/CNC(=O)c2cc3c([nH]c2=O)CCCC3)cc1C (stereo not drawn) ?
**Result** ≤ 100 nM

---

target: human E3 ubiquitin-protein ligase RNF31 (HOIP) (Homo sapiens, UniProt Q96EP0); experiment: Cell-free HTRF-based HOIP inhibition assay; assay type: biochemical
pIC50: −log10 of the molar value.
Each record here notes measured pIC50.

>  <molecule>
O=C(NC/C=C/S(=O)(=O)c1ccccc1)c1cc2c([nH]c1=O)CCN(C(=O)OCC1CC1(F)F)C2 (centres unmarked)

>  <pIC50>
≥ 6.00

$$$$
>  <molecule>
N=S(=O)(/C=C/CNC(=O)c1cc2c([nH]c1=O)CCCC2)c1ccc(OC(F)(F)F)cc1 (centres unmarked)

>  <pIC50>
≥ 6.00

$$$$
>  <molecule>
O=C(NC/C=C/S(=O)(=O)c1ccccc1Cl)c1cc2c([nH]c1=O)CCCC2

>  <pIC50>
≥ 7.00

$$$$
>  <molecule>
COc1cccc(S(=N)(=O)/C=C/CNC(=O)c2cc3c([nH]c2=O)CCCC3)c1 (centres unmarked)

>  <pIC50>
≥ 6.00

$$$$

**Query** Quick check: pIC50 of N=S(=O)(/C=C/CNC(=O)c1cc2c([nH]c1=O)CCN(C(=O)OCC(F)F)C2)c1ccccc1 (centres unmarked) ?
**Result** ≥ 6.00

**Query** Quick check: pIC50 of O=C(NC/C=C/S(=O)(=O)c1ccccc1)c1cc2c([nH]c1=O)CCN(C(=O)OC1CCC1)C2 ?
**Result** ≥ 7.00

**Query** Quick check: pIC50 of O=C(NC/C=C/S(=O)(=O)c1ccccc1)c1cc2c([nH]c1=O)CCN(Cc1ccccc1)C2 ?
**Result** ≥ 6.00

**Query** Quick check: pIC50 of COc1ccc(S(=N)(=O)/C=C/CNC(=O)c2cc3c([nH]c2=O)CCN(C(=O)OC2CCC(F)(F)CC2)C3)cc1F (centres unmarked) ?
**Result** ≥ 7.00

---

target: human E3 ubiquitin-protein ligase RNF31 (HOIP) (Homo sapiens, UniProt Q96EP0); assay: Cell-free HTRF-based HOIP inhibition assay; format: biochemical
metric: IC50

Some compounds with known IC50 results, for comparison:
>  <compound>
N=S(=O)(/C=C/CNC(=O)c1cc2c([nH]c1=O)CCCC2)c1ccc(C2CCCCC2)cc1 (stereo not drawn)

>  <IC50>
≤ 100 nM

$$$$
>  <compound>
O=C(NC/C=C/S(=O)(=O)c1ccccc1)c1cc2c([nH]c1=O)CCN(C(=O)C1CCN(c3ccccc3)C1)C2 (stereo not drawn)

>  <IC50>
≤ 1000 nM

$$$$
>  <compound>
O=C(NC/C=C/S(=O)(=O)c1ccccc1)c1cc2c([nH]c1=O)CCN(C(=O)OC1CCCCC1)C2

>  <IC50>
≤ 100 nM

$$$$
>  <compound>
Cc1nnc(COC(=O)N2CCc3[nH]c(=O)c(C(=O)NC/C=C/S(=O)(=O)c4ccccc4)cc3C2)o1

>  <IC50>
≤ 1000 nM

$$$$
>  <compound>
CC1(C)CC1COC(=O)N1CCc2[nH]c(=O)c(C(=O)NC/C=C/S(=O)(=O)c3ccc(Cl)cc3)cc2C1 (stereo not drawn)

>  <IC50>
≤ 100 nM

$$$$

**Query** Quick check: IC50 of COc1ccc(S(=N)(=O)/C=C/CNC(=O)c2cc3c([nH]c2=O)CCCC3)cc1Cl (stereo not drawn) ?
**Result** ≤ 100 nM

**Query** Quick check: IC50 of CO[C@H]1CC[C@H](C(=O)N2CCc3[nH]c(=O)c(C(=O)NC/C=C/S(=O)(=O)c4ccccc4)cc3C2)CC1 ?
**Result** ≤ 1000 nM

**Query** Quick check: IC50 of CC(=O)N1CCc2[nH]c(=O)c(C(=O)NC/C=C/S(=O)(=O)c3ccccc3)cc2C1 ?
**Result** ≤ 10000 nM

**Query** Quick check: IC50 of CC(C)C1CCc2[nH]c(=O)c(C(=O)NC/C=C/S(=O)(=O)c3ccccc3)cc2C1 (stereo not drawn) ?
**Result** ≤ 1000 nM

**Query** Quick check: IC50 of O=C(NC/C=C/S(=O)(=O)c1ccccc1)c1cc2c([nH]c1=O)CCN(Cc1cccnn1)C2 ?
**Result** ≤ 1000 nM

**Query** Quick check: IC50 of O=C(NC/C=C/S(=O)(=O)c1ccc(F)cc1F)c1cc(-c2ccccc2)c[nH]c1=O ?
**Result** ≤ 1000 nM

**Query** Quick check: IC50 of O=C(NC/C=C/S(=O)(=O)c1ccc(Cl)cc1)c1cc2c([nH]c1=O)CCN(C(=O)OCC1CC1)C2 ?
**Result** ≤ 100 nM

---

Each record here notes measured pIC50.
biological target: human E3 ubiquitin-protein ligase RNF31 (HOIP) (Homo sapiens); assay: Cell-free HTRF-based HOIP inhibition assay; assay type: biochemical
pIC50: −log10 of the molar value.

Some compounds with known pIC50 results, for comparison:
>  <compound>
O=C(NC/C=C/S(=O)(=O)c1ccccc1)c1cc2c([nH]c1=O)CCN(C(=O)OCC1CC1)C2

>  <system-tested>
human E3 ubiquitin-protein ligase RNF31 (HOIP) (Homo sapiens)

>  <pIC50>
≥ 7.00

$$$$
>  <compound>
COc1ccc(S(=N)(=O)/C=C/CNC(=O)c2cc3c([nH]c2=O)CCN(C(=O)OCCF)C3)cc1F (centres unmarked)

>  <system-tested>
human E3 ubiquitin-protein ligase RNF31 (HOIP) (Homo sapiens)

>  <pIC50>
≥ 7.00

$$$$
>  <compound>
O=C(NC/C=C/S(=O)(=O)c1ccc(Cl)cc1)c1cc2c([nH]c1=O)CCN(C(=O)OC1COC1)C2

>  <system-tested>
human E3 ubiquitin-protein ligase RNF31 (HOIP) (Homo sapiens)

>  <pIC50>
≥ 7.00

$$$$
>  <compound>
O=C(NC/C=C\S(=O)(=O)c1ccccc1)c1cc2c([nH]c1=O)CCCC2

>  <system-tested>
human E3 ubiquitin-protein ligase RNF31 (HOIP) (Homo sapiens)

>  <pIC50>
≥ 6.00

$$$$
>  <compound>
COc1ccc(S(=O)(=O)/C=C/CNC(=O)c2cc3c([nH]c2=O)CCN(C(=O)OC(C)(C)C)C3)cc1F

>  <system-tested>
human E3 ubiquitin-protein ligase RNF31 (HOIP) (Homo sapiens)

>  <pIC50>
≥ 7.00

$$$$

**Query** Quick check: pIC50 of O=C(NC/C=C/S(=O)(=O)c1ccccc1)c1cc2c([nH]c1=O)CCN(C(=O)CC1CC1)C2 ?
**Result** ≥ 6.00

**Query** Quick check: pIC50 of O=C(NC/C=C/S(=O)(=O)c1ccccc1)c1cc2c([nH]c1=O)CCN(C(=O)C1CC1c1ccccc1)C2 (centres unmarked) ?
**Result** ≥ 6.00

**Query** Quick check: pIC50 of O=C(NC/C=C/S(=O)(=O)c1ccccc1)c1cc2c([nH]c1=O)CCC2 ?
**Result** ≥ 7.00
